measured_on: Proto-oncogene tyrosine-protein kinase receptor Ret (Homo sapiens)
Sequence (P07949 whole entry): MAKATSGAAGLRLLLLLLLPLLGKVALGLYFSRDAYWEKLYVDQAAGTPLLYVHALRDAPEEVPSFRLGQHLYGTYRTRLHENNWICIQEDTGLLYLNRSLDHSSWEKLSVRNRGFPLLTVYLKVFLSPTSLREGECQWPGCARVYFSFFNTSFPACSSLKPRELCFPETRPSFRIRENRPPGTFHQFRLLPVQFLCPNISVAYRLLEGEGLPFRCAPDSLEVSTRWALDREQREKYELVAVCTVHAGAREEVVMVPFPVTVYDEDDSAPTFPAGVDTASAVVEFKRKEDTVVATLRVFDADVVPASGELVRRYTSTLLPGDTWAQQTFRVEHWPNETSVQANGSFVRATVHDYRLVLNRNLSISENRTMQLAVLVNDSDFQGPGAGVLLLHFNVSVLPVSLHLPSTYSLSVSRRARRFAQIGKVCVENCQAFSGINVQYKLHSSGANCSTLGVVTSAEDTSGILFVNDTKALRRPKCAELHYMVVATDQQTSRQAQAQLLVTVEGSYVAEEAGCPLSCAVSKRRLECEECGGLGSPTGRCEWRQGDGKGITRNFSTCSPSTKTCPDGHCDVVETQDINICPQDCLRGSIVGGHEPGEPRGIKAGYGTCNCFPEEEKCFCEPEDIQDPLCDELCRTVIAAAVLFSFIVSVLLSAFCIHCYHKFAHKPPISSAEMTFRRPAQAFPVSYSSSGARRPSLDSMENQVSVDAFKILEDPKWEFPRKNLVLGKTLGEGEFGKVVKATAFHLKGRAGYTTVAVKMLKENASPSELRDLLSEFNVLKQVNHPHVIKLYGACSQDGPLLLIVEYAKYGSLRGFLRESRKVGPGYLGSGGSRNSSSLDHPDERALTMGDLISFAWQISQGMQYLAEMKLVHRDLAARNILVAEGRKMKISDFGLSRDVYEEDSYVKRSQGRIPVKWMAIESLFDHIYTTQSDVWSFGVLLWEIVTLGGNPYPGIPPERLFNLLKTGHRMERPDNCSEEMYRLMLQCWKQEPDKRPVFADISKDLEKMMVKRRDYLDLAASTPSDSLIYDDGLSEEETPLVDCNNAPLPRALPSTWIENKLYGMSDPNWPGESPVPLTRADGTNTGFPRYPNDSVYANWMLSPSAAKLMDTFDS
method_summary: Inhibition of RET (unknown origin) assessed as maximal efficacy relative to control
assay_metric: Emax (%)
# number only, unit % dropped from output

Sample answers from the record:
CNC(=O)[C@@H](Cc1c[nH]cn1)NC(=O)Cc1cccc(O[C@H]2CCc3cc(-c4cnc(Nc5ccccc5)nc4)ccc32)c1 : 0
CNC(=O)[C@H](Cc1c[nH]cn1)NC(=O)Cc1cccc(O[C@H]2CCc3cc(-c4cnc(Nc5ccccc5)nc4)ccc32)c1 : 65
CNC(=O)[C@H](NC(=O)Cc1cccc(O[C@H]2CCc3cc(-c4cncc(Oc5ccccc5)c4)ccc32)c1)C1CCCCC1 : 0

[ask] Which Emax is reported for this molecule? `CNC(=O)Cc1cccc(O[C@H]2CCc3cc(-c4cnc(Nc5ccccc5)nc4)ccc32)c1`
[reply] 0

The reported measurements were obtained from ChEMBL document CHEMBL5584267.
